# TGI per entry
- System: SNB-19 CNS
- test: NCI tumour cell line growth inhibition, 48 h
Where a SMILES comes first, the peptide text is derived from it. [ ]: non-standard residue; d: D form. The star is where a group is joined. Boc = CC(C)(C)OC(=O)*; Lac = C[CH](O)C(=O)O; OBn = c1ccc(CO*)cc1

molecule	TGI
O=C1/C(=C/c2ccc([N+](=O)[O-])cc2)COc2ccc(O)c(O)c21	3.1 µM
Cn1c(=O)c2c3ccccc3n(C)c2n(C)c1=O	> 100 µM
COc1ccc(NC(=S)Nc2cc(C)cc(C)n2)cc1	> 100 µM
CC(=O)N1[C@H](C(=O)O)CS[C@H]1c1ccncc1	> 100 µM
CCOC(=O)Nc1nc2ccc(OCC)cc2s1	> 100 µM
CCCCS(=O)(=O)CCC(N)P(=O)(O)O (stereo unspecified)	> 100 µM
CC(C)(C)c1cc(C(=O)/C=C/c2c(Cl)cccc2Cl)cc(C(C)(C)C)c1O	29.7 µM
CCOC(=O)C1=C(C)CC2C(=O)OC(=O)C2C1(C)C (stereo unspecified)	> 100 µM
Cc1cnc(NC(=O)C(Cc2ccccc2)NC(=O)c2ccccc2)s1 (stereo unspecified)	48.6 µM
CN(C)c1ccc(-c2cc(-c3ccc(Nc4nc(Nc5ccc(Cl)cc5)nc(Nc5ccc(Cl)cc5)n4)cc3)no2)cc1	> 100 µM
C/C(CCn1[nH]c(=O)ccc1=O)=N\O	> 100 µM
CN(Cc1cnc2nc(N)nc(N)c2n1)c1ccc(C(=O)NCCS(=O)(=O)O)cc1	> 100 µM
Cc1sc(Nc2ccc(Nc3nc(-c4ccccc4)c(C)s3)cc2)nc1-c1ccccc1	> 100 µM
CC(OC(=O)C(Cc1ccccc1)NC(=O)C(Cc1ccccc1)NC(=O)OC(C)(C)C)C(=O)OCc1ccccc1 (stereo not drawn) (Boc-Phe-Phe-[Lac]-OBn; configuration not given here)	> 100 µM
COc1cc2c(c(OC)c1O)C(=O)C(OC)C(c1ccc(O)c(O)c1)O2 (stereo unspecified)	> 100 µM
NC(=O)c1ccc(C(=O)Nc2ccc([As](=O)(O)O)cc2)cc1	> 100 µM
O=C(/C=C/c1ccccc1Cl)c1ccc(Cl)c(Cl)c1	29.9 µM
Cn1ccnc1C(=O)/C=C/c1ccc(CC(=O)Nc2ccc(Br)cc2)cc1	5.75 µM
COc1cc2cnc3c4cc(OC(C)C)c(OC)cc4ccc3c2cc1OC	> 100 µM
O=C(CCl)N1c2ccccc2Oc2ccc3ccccc3c21	3.44 µM
O=C(N/C(=C\c1cc(Cl)ccc1Cl)c1nc2[nH]c(=S)[nH]c(=O)c2[nH]1)c1ccccc1	> 100 µM
C=C(C)[C@@H]1CCC2=C[C@@H](OC2=O)[C@@H](C(=C)C)C2=CC(C(=O)O)=C(C1)O2	> 100 µM
N#CC(C#N)=c1ccc(=C2NCC3CCCN23)cc1 (stereo unspecified)	> 100 µM
O=[N+]([O-])c1cnc(Sc2ccncn2)s1	31.9 µM
CC(C)=C1C(=O)C[C@]2(C)C[C@H]3O[C@]3(C)CC[C@@H]3O[C@@]3(C)CC[C@@H]12	> 50 µM
COC(=O)Nc1nc2ccc(S(=O)c3ccccc3)cc2[nH]1 (stereo unspecified)	> 100 µM
NS(=O)(=O)c1ccccc1C(=O)N/N=C(\c1nc2ccc([N+](=O)[O-])cc2[nH]c1=O)C(O)c1ccc([N+](=O)[O-])cc1 (stereo unspecified)	> 100 µM
COc1cc2nc(C)nc(N[C@H](C)c3cc(N)cc(C(F)(F)F)c3)c2cc1O[C@H]1CCOC1	27.4 µM
CO[C@]1(c2ccc([N+](=O)[O-])cc2)Oc2ccccc2C(=O)[C@@]1(Nc1ccc(C=O)cc1)OC	> 10 µM
CCCN(CCC)CCc1ccc(OC2=CCN(C)CC2)cc1	> 100 µM
CN(C)CCNc1ccc([N+](=O)[O-])c2sc3ccccc3c(=O)c12	43.2 µM
CC(=O)OC(C)C(=O)C1c2cccc(O)c2C(=O)c2c(O)cc(C)cc21 (stereo unspecified)	1.6 µM
O=c1cc(-c2cccc(O)c2)[nH]c2cc3c(cc12)OCO3	> 49.6 µM
CCOC(=O)c1c(SC(=O)c2ccc(C(C)(C)C)cc2)n(-c2ccccc2)c(=S)n(-c2ccccc2)c1=O	> 100 µM
COc1ccc(/C=c2/sc3n(c2=O)C(c2ccccc2)C2(O)CCCCC2N=3)cc1 (stereo unspecified)	> 12.5 µM
C=CC[C@H]1O[Si](C(C)(C)C)(C(C)(C)C)[C@H](C)[C@H]1C	> 100 µM
O=C1N(C2CCCCC2)C(=O)N1C1CCCCC1	29.9 µM
Cc1c(-c2ccc(O)cc2)n(CCCCCCNCCOC(=O)NCCCc2ccc(N(CCCl)CCCl)cc2)c2ccc(O)cc12	28.1 µM
O=C1c2cccnc2-c2nc(-c3ccccc3[N+](=O)[O-])cc3c2c1nc1ccccc13	84.7 µM
CC(=O)OC1COC(n2c(=S)n(-c3ccc(C)cc3)c(=O)c3ccccc32)C(OC(C)=O)C1OC(C)=O (stereo unspecified)	> 100 µM
CC(=O)C(CN(C(C)C)C(C)C)C(c1ccccc1)c1c(O)c2ccccc2oc1=O (stereo unspecified)	> 100 µM
